Conditions: human gut metagenome, 24 h, 2 µM; also: call rule not given here
observation.type: Bacterial Biotransformation

Consider the following illustrative entries.
- compound: "Br.CN(C)CCCC1(c2ccc(F)cc2)OCc2cc(C#N)ccc21 (stereo not drawn) [CITALOPRAM HYDROBROMIDE]"
  Bacterial Biotransformation: "Compound NOT metabolized"
- compound: "CC(=O)CC(c1ccccc1)c1c(O)c2ccccc2oc1=O (stereo not drawn) [WARFARIN]"
  Bacterial Biotransformation: "Compound metabolized"
- compound: "Cc1cn([C@H]2C[C@H](N=[N+]=[N-])[C@@H](CO)O2)c(=O)[nH]c1=O [ZIDOVUDINE]"
  Bacterial Biotransformation: "Compound NOT metabolized"
- compound: "COC(=O)Nc1nc2ccc(C(=O)c3ccccc3)cc2[nH]1 [MEBENDAZOLE]"
  Bacterial Biotransformation: "Compound NOT metabolized"
- compound: "COc1ccccc1OCC(O)CN1CCN(CC(=O)Nc2c(C)cccc2C)CC1 (stereo not drawn) [RANOLAZINE]"
  Bacterial Biotransformation: "Compound NOT metabolized"

# batch size: 2; output Bacterial Biotransformation per entry
1. COC(=O)[C@H]1[C@H]2C[C@@H]3c4[nH]c5cc(OC)ccc5c4CCN3C[C@H]2C[C@@H](OC(=O)c2cc(OC)c(OC)c(OC)c2)[C@@H]1OC [RESERPINE]
2. CN1CCc2c(c3ccccc3n2Cc2ccccc2)C1.CN1CCc2c(c3ccccc3n2Cc2ccccc2)C1.O=S(=O)(O)c1cccc2c(S(=O)(=O)O)cccc12

1. Compound NOT metabolized
2. Compound NOT metabolized

State the recorded Bacterial Biotransformation for this entry: CCCCc1nc(Cl)c(CO)n1Cc1ccc(-c2ccccc2-c2nn[nH]n2)cc1 [LOSARTAN] Compound metabolized

----------
Assay: The drug is tested on Z-023 corresponding to metagenome with ENA study accession number: PRJEB37062 and ENA sample accession number: ERS12561822 for biotransformation under anaerobic condition. The drug concentrations were measured over 9 timepoints collected between 0 and 24 hours of incubation by liquid-chromatography-coupled mass spectrometry (LC–MS)
Conditions: 2 µM
observation.type: Bacterial Biotransformation

Consider the following illustrative entries.
- compound: "Nc1c2c(nc3ccccc13)CCCC2"
  Bacterial Biotransformation: "Compound NOT metabolized"
- compound: "CCCCC1=NC2(CCCC2)C(=O)N1Cc1ccc(-c2ccccc2-c2nnn[nH]2)cc1"
  Bacterial Biotransformation: "Compound metabolized"
- compound: "O=c1n(CCCN2CCN(c3cccc(Cl)c3)CC2)nc2ccccn12"
  Bacterial Biotransformation: "Compound NOT metabolized"
- compound: "Cc1nc2n(c(=O)c1CCN1CCC(c3noc4cc(F)ccc34)CC1)CCCC2"
  Bacterial Biotransformation: "Compound metabolized"
- compound: "C[C@@H]1CC[C@H]2[C@@H](C)C(=O)O[C@@H]3O[C@@]4(C)CC[C@@H]1[C@]32OO4"
  Bacterial Biotransformation: "Compound metabolized"

# batch size: 4; output Bacterial Biotransformation per entry
1. CN(C)CCC=C1c2ccccc2C=Cc2ccccc21
2. CN1CC(=O)N2[C@H](c3ccc4c(c3)OCO4)c3[nH]c4ccccc4c3C[C@@H]2C1=O
3. Cc1ccccc1N1C(=O)c2cc(S(N)(=O)=O)c(Cl)cc2NC1C (centres undefined)
4. CC(C)NCC(O)COc1ccc(CCOCC2CC2)cc1 (centres undefined)

1: Compound metabolized; 2: Compound metabolized; 3: Compound NOT metabolized; 4: Compound metabolized
